Tested on: MCF7 breast
Assay: NCI-60 one-dose screen, 48 h
Conditions: 10 µM unless noted
About 83,000 compounds went through this panel and 20% of them were active in at least one assay; those are over-represented in the sample as a whole. Active and inactive are the calls of the source. How the source made its calls: active means growth percent below 10; inactive means the rest.
Outcome codes: 1 (active), 0 (inactive)

input_smiles=COc1ccc(-c2cnc(-c3ccc(F)cc3)[nH]2)cc1 tgt="MCF7 breast" answer_label=0
input_smiles=CN(C)c1ccc(/C=N/N=C(N)N)cc1 tgt="MCF7 breast" answer_label=0
input_smiles=CC(C)(C)C(=O)/C=c1/[nH]c(=O)/c(=C/c2ccccc2O)s1 tgt="MCF7 breast" answer_label=0
input_smiles=C#CCn1c(-c2cc(OC)c(OC)cc2Br)nc(-c2ccccc2)c1-c1ccccc1 tgt="MCF7 breast" answer_label=0
input_smiles=COc1ccc(-c2nn(-c3ccc(NC(=O)c4cc(Cl)cc(Cl)c4)cc3)cc2-c2ccncc2)cc1Cl tgt="MCF7 breast" answer_label=0
input_smiles=COc1ccc(-c2nnc(SCC(=O)Nc3ccc(C(=O)/C=C/c4ccc(OC)c(OC)c4)cc3)o2)cc1 tgt="MCF7 breast" answer_label=0
input_smiles=CCNc1cc(S(=O)(=O)O)ccc1C tgt="MCF7 breast" answer_label=0
input_smiles=COc1ccc2c(c1)nnn1c3ncccc3c(N=O)c21 tgt="MCF7 breast" answer_label=1
input_smiles=Cc1cc(SCc2ccc(Cl)cc2Cl)nc(SCc2ccc(Cl)cc2Cl)n1 tgt="MCF7 breast" answer_label=0
input_smiles=C=C1C(=O)O[C@H]2[C@H]1CC/C(CNC(=O)/C1=C/CC[C@@]3(C)O[C@H]3[C@H]3OC(=O)C(=C)[C@@H]3CC1)=C\CC[C@@]1(C)O[C@@H]21 tgt="MCF7 breast" answer_label=0

====

System: BT-549 breast
Assay: NCI-60 one-dose screen, 48 h (100 = growth as untreated, 0 = no growth, -100 = all killed)
Settings: 10 µM unless noted
Compounds without any hit were thinned out: in the full panel of roughly 83,000, 20% have a hit.
Measured property: growth (%)

compound=CC(C)C(=O)Nc1nc2c(s1)CCCc1ccn(S(=O)(=O)c3ccccc3)c1-2 value_observed=89.8
compound=O=C(O)c1cccc2oc(-c3ccccc3O)nc12 value_observed=75.5
compound=CC(C)Cn1cnc2c3ccccc3nc(NCn3nc(-c4cc(Cl)cc(Cl)c4Cl)oc3=S)c21 value_observed=97.5
compound="CC12CCC3C(CCC4CC(O)CCC43C)C1C/C(=C/O)C(=O)O2 (centres undefined)" value_observed=109
compound="CC(CCC(=O)O)[C@H]1CCC2C3C(=O)C[C@@H]4CC(=O)CC[C@]4(C)C3CC(=O)[C@@]21C (some centres undefined)" value_observed=112
compound=C=C1C(=O)O[C@H]2[C@H]1CC/C(COC(=O)c1ccccc1)=C\CC[C@@]1(C)O[C@@H]21 value_observed=-13.7
compound=O=C(Nc1ccc(-n2cc(-c3ccncc3)c(-c3ccc(O)c(Cl)c3)n2)cc1)Nc1ccc(Cl)c(C(F)(F)F)c1 value_observed=-19.4
compound=C#C[C@@]1(O)[C@@H](CO)O[C@@H](n2cc(C(F)(F)F)c3c(N)ncnc32)[C@@H]1O value_observed=-12.1
compound=CCOc1ccc(-n2c(-c3cc(OC)c(OC)c(OC)c3)nnc2-c2ccc(OC)cc2N)cc1 value_observed=84

====

Test system: SW-620 colon
Experiment: NCI-60 one-dose screen, 48 h
Details: 10 µM unless noted
This is part of a sample that, as a whole, favours compounds with a hit. Of some 83,000 tested, about 20% had one in any assay. Active and inactive are the calls of the source. The calls were made as follows: active = growth percent below 10; inactive = the rest.
Classes used: yes (1) (active), no (0) (inactive)

molecule=COc1ccc(-c2nnc(SCC(=O)Nc3ccc(C(=O)/C=C/c4ccc(Cl)cc4)cc3)o2)cc1OC answer_label="no (0)"
molecule=CC1(C)N=C(N)N=C(N)N1c1ccc(OCC(=O)Nc2ccccc2)c(Cl)c1 answer_label="no (0)"
molecule=COc1cc(/C=C2/Oc3cc4occc4c(OC)c3C2=O)ccc1OCC(=O)Nc1ccncc1 answer_label="no (0)"
molecule=O=C(NCCNc1nccc(-c2c(-c3cccc(O)c3)nc3sccn23)n1)c1ccccc1O answer_label="no (0)"
molecule=CN1CCN(CC(=O)N(C)c2ccc(N=C(c3ccccc3)c3c(O)[nH]c4ccc(C#N)cc34)cc2)CC1 answer_label="no (0)"
molecule=Cc1ccc2nc(-c3ccc(-n4on4-c4ccc(/C=C/c5ccc(-n6on6-c6ccc(-c7nc8ccc(C)cc8s7)cc6)cc5S(=O)(=O)O)c(S(=O)(=O)O)c4)cc3)sc2c1 answer_label="no (0)"
molecule=C=C1C(=O)O[C@H]2[C@H]1CC/C(COC(=O)c1ccc(Cl)nc1)=C\CC[C@@]1(C)O[C@@H]21 answer_label="yes (1)"
molecule=C=C1C(=O)O[C@H]2[C@H]1CC/C(CNC(=O)/C1=C/CC[C@@]3(C)O[C@H]3[C@H]3OC(=O)C(=C)[C@@H]3CC1)=C\CC[C@@]1(C)O[C@@H]21 answer_label="no (0)"
molecule=COc1ccccc1S(=O)(=O)Nc1ccc2c3c(cc(-c4ccoc4)nc13)C(=O)N2C answer_label="no (0)"
molecule="CC1=C[S+](c2ccccc2)c2cccc3cc4ccccc4c1c23 (configuration not stated)" answer_label="yes (1)"
molecule=O=C(CSc1nnc(-c2ccccc2)o1)Nc1ccc(C(=O)/C=C/c2ccccc2)cc1 answer_label="no (0)"
molecule=O=C(CNc1cccnc1)Nc1ccc(C(=O)/C=C/c2ccc(Cl)cc2)cc1 answer_label="no (0)"
molecule=COc1ccccc1S(=O)(=O)Nc1ccc2c3c(cc(-c4cnn(C5CC5)c4)nc13)C(=O)N2C answer_label="no (0)"
molecule=NS(=O)(=O)c1ccc(CCN2C(=O)/C(=C\c3ccc(Cl)cc3)C=C2c2ccc(Oc3ccccc3)cc2)cc1 answer_label="no (0)"
molecule=O=c1c2ccccc2[nH]n1Cc1ccc2c(c1)OCO2 answer_label="no (0)"
molecule="COc1cc(NC(C)CCCN2C(=O)c3ccccc3C2=O)c2ncccc2c1OC (configuration not stated)" answer_label="no (0)"
molecule="COc1cccc(/C=N/C(=S)NC2(C)C3CCC(C3)C2(C)C)c1O (configuration not stated)" answer_label="no (0)"
molecule=c1cncc(-c2nc3ccccc3[nH]2)c1 answer_label="no (0)"
molecule="CC12CCC3C(CCC4CC(O)CCC43C)C1C/C(=C/O)C(=O)O2 (configuration not stated)" answer_label="no (0)"
molecule=CCCC(C)(C)COC(=O)c1cccc(N)c1 answer_label="no (0)"
molecule=O=C(Nc1cccc(-n2ccc3c(NC(=O)c4ccccc4)ncnc32)c1)Nc1ccc(Cl)c(C(F)(F)F)c1 answer_label="no (0)"
molecule=O=C1COc2ccccc2C(=O)N1CCCCNc1ccccc1 answer_label="no (0)"
molecule=O=C1CN(CCN2CC(=O)NC(=O)C2)CC(=O)N1 answer_label="no (0)"
molecule=CCCCCCCC(=O)SCC/C=C/[C@@H]1CC(=O)NCc2nc(cs2)C2=N[C@@](C)(CS2)C(=O)N[C@@H](C(C)C)C(=O)N1 answer_label="no (0)"
molecule=COc1ccc(-c2nn(-c3ccc(NC(=O)Nc4ccc(Cl)c(Cl)c4)cc3)cc2-c2ccncc2)cc1Cl answer_label="no (0)"
molecule=Nc1nc(=S)ss1 answer_label="no (0)"
molecule=O=C(NNC(=O)c1ccc([N+](=O)[O-])cc1)c1ccc([N+](=O)[O-])cc1 answer_label="no (0)"
molecule=C=C1C(=O)O[C@H]2[C@H]1CC/C(COC(=O)CCCC(=O)OC/C1=C/CC[C@@]3(C)O[C@H]3[C@H]3OC(=O)C(=C)[C@@H]3CC1)=C\CC[C@@]1(C)O[C@@H]21 answer_label="yes (1)"
molecule=O=C(Nc1ccc(F)cc1)Nc1ccc(Br)c(C(F)(F)F)c1 answer_label="no (0)"
molecule=Nn1c(SCC(=O)Nc2cc(Cl)c(Cl)cc2Cl)nnc1-c1cc(F)c(Cl)cc1Cl answer_label="no (0)"
molecule=CCCCNC(=O)Oc1ccc(/C(=C(/CC)Cc2ccccc2)c2ccc(OCCCN(C)C)cc2)cc1 answer_label="no (0)"
molecule=O=C(/C=C/c1ccco1)c1cccc(Nc2nc(Nc3ccccc3)nc(Nc3ccccc3)n2)c1 answer_label="no (0)"
molecule=Cc1cc(SCc2ccc(Cl)cc2Cl)nc(SCc2ccc(Cl)cc2Cl)n1 answer_label="no (0)"
molecule=CCCOC(=O)c1ccc([N+](=O)[O-])o1 answer_label="no (0)"
molecule="CC1OC(n2c3ccccc3c3c4c(c5c6ccccc6[nH]c5c32)C(=O)N(CCN[C@@H]2CCC[C@H]2N)C4=O)CC(O)C1O (some centres not stated)" answer_label="yes (1)"
molecule="CCOC(=O)C(C)(CSSCC(C)(NC(=O)c1ccc2ccccc2c1)C(=O)OCC)NC(=O)c1ccc2ccccc2c1 (configuration not stated)" answer_label="no (0)"
molecule="Cc1ccc2c(C3C(C#N)=C(N)Oc4cc5ccccc5cc43)cc(=O)oc2c1 (configuration not stated)" answer_label="no (0)"
